target: human Lck enzyme (Homo sapiens, UniProt P06239); construct: purchased Carna Biosciences, Inc. 08-170; test: Lck enzyme inhibitory activity (time-resolved fluorometry, biotinylated peptide phosphorylation); format: biochemical; settings: biotinylated peptide phosphorylation, read-out: LCK_IC50
Sequence (P06239 whole entry): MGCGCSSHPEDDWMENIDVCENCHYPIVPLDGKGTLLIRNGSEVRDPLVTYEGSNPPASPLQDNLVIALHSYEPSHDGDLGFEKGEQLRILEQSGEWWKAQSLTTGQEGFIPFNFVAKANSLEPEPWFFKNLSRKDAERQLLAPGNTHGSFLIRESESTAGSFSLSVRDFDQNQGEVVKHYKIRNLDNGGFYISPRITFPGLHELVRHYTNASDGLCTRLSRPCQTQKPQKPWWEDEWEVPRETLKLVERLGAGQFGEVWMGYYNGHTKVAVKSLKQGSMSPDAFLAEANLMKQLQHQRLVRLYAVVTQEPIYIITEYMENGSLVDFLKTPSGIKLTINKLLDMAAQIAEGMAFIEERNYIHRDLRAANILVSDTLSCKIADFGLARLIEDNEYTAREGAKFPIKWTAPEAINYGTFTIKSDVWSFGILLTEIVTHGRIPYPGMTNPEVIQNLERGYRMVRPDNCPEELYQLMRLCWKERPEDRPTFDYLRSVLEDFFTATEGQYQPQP
quantityKind: IC50 (nM)

Some entries whose results are on file:
smilesInput: Cc1cc(Oc2ccccc2F)ncc1-n1ncc(C(=O)c2cc3cc(OCC(F)F)c(C4CCN(S(C)(=O)=O)CC4)cc3[nH]2)c1N
IC50 [nM]: 5.6

smilesInput: Cc1cc2cc(C(=O)c3cnn(-c4cnc(Oc5cccc(Cl)c5)cc4C)c3N)[nH]c2cc1N1CCCS1(=O)=O
IC50 [nM]: 35

smilesInput: Cc1cc(Oc2c(F)cccc2F)ncc1-n1ncc(C(=O)c2cc3cc(F)c(NS(=O)(=O)c4cccc(C#N)c4)cc3[nH]2)c1N
IC50 [nM]: 150

smilesInput: Cc1cc(Oc2ccccc2F)cc(F)c1-n1ncc(C(=O)c2cc3cc(Cl)c(NS(C)(=O)=O)cc3[nH]2)c1N
IC50 [nM]: 24

P: Cc1cc(Oc2ccccc2F)ccc1-n1ncc(C(=O)c2cc3cc(F)c(NS(=O)(=O)NCC(C)(C)O)cc3[nH]2)c1N
Q: Cc1cc(Oc2cc(F)ccc2F)cc(F)c1-n1ncc(C(=O)c2cc3cc(F)c(NS(C)(=O)=O)cc3[nH]2)c1N
Query: Just curious, which one has the larger IC50 reading, P or Q ? Indicate which entry you chose by stating its label.
Reply: Q
(Q: 41 nM, P: 6.9 nM)
